Assay Method Text: chemical genetic growth profiling, strain panel (AID 1159580);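 also: tested at 20 µM; growth read once vehicle control cultures reached saturation at 30 °C; 1 = growth at the plate median or of vehicle wells; lower values mean less growth of the strain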
Condition: S. cerevisiae strains, growth OD, strain wild type, active compounds read low
In all, about 5,500 compounds went through this assay and about 2,000 (36%) were called active. Inconclusive results (about 18%) are left out. Some of the results follow.
Reported Endpoint: normalized growth
Numbers only.

Some solved cases for reference:
| Compound | Observed |
| --- | --- |
| Cc1cc(NC(=O)C2=C(O)c3ccccc3S(=O)(=O)N2C)no1 | 0.983 |
| CC(=O)CC(=O)Nc1ccccc1Cl | 0.971 |
| COc1cc([C@@H]2c3cc4c(c(O)c3C[C@H]3COC(=O)[C@@H]32)OCO4)cc(OC)c1OC | 0.99 |
| COc1ccccc1N=C(N)SCc1ccccc1 | 1.01 |
| CN1C(C(=O)Nc2ccccn2)=C(O)c2ccccc2S1(=O)=O | 0.984 |
| CCCCOC(=O)c1ccc(N)cc1 | 0.949 |
| CC(C)(C)S(=O)(=O)/C(C#N)=C/N1CCCCC1 | 1.01 |
| NC(N)=NS(=O)(=O)c1ccc(N)cc1 | 1.02 |
| Cc1cccc(Nc2ccccc2C(=O)O)c1C | 0.937 |
| CSC(=NC#N)N1CCN(c2ccc([N+](=O)[O-])cn2)CC1 | 0.983 |

Please give normalized growth for each item listed below.
1. Cc1ccc(Cl)c(Nc2ccccc2C(=O)O)c1Cl
2. C=C1C(=O)OC2CC1C(OC(C)=O)C/C(C)=C/CC/C(C)=C/CC[C@]2(C)O (some centres not stated)
3. C=C1C(C)C2C(Cc3ccccc3)NC(=O)C23OC(=O)/C=C/C(O)CCCC(C)C/C=C/C3C1O (configuration not stated)
4. Cc1onc(-c2c(F)cccc2Cl)c1C(=O)c1ccc(F)cc1

output:
0.888
1.01
1.01
0.959

Please give normalized growth for each item listed below.
1. CCCCCCOc1ccccc1C(N)=O
2. O=C(O)CN(CC(=O)O)Cc1cc2c(-c3ccccc3C(=O)O)c3cc(CN(CC(=O)O)CC(=O)O)c(=O)cc-3oc2cc1O
3. CCCCOC(=O)c1ccccc1C(=O)OCCCC

output:
1: 0.559; 2: 0.999; 3: 0.987

Please give normalized growth for each item listed below.
1. C=C1C(=O)O[C@@H]2C3O[C@]3(C)CC/C=C(\C)CC[C@@H]12 (some centres not stated)
2. CCN(CC)CCOC(=O)c1ccc(N)cc1
3. Cc1c(Cl)cccc1Nc1ccccc1C(=O)O
4. CC1C[C@H]2CC(=O)[C@H]3CCCN4CCC[C@H]2[C@]34C1 (some centres not stated)

output:
1. 0.806
2. 1.01
3. 0.857
4. 1.01

input: Recorded normalized growth for COc1ccc2c(c1)O[C@H]1c3ccc(OC)cc3OC[C@@H]21 , please?
output: 1.01

* * *

Assay Method Text: chemical genetic growth profiling, strain panel (AID 1159580);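 also: tested at 20 µM; growth read once vehicle control cultures reached saturation at 30 °C; 1 = growth at the plate median or of vehicle wells; lower values mean less growth of the strain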
Condition: S. cerevisiae deletion strains, growth OD, locus YPL031C, strain PHO85, active compounds read low
The whole screen tested about 5,500 compounds, of which about 2,000 (36%) were called active. Another 18% or so got no clear call; they are omitted. This is one part of the list.
Please go through the items and note down their normalized growth.
One number for each entry.

| Compound String | normalized growth |
| --- | --- |
| CC(=O)ON=C1c2cc([N+](=O)[O-])ccc2-c2ccc([N+](=O)[O-])cc21 | 0.701 |
| CCCCN(C)C(=O)c1cc([N+](=O)[O-])cc2c1-c1ccc([N+](=O)[O-])cc1C2=C(C#N)C#N | 0.967 |
| Cc1ccc(NNC(=O)c2c(C)noc2C)cc1Cl | 0.944 |

Next up:
input: Recorded normalized growth for Cc1ccc(NS(=O)(=O)c2ccc(Cl)cc2)c(N=Cc2cc(Cl)cc(Cl)c2O)c1 , please?
output: 0.231
